Target: T1, TL1A in human blood (endogenous) (human, UniProt O95150 72-251, limits assumed)
T1 sequence (looked up): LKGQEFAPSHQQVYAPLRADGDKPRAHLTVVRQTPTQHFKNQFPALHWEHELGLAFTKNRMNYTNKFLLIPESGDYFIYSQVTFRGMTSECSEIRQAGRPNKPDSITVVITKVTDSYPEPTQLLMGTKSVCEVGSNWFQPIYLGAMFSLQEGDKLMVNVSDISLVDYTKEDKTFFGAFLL
Test: cell-based or functional assay
Catalogue of % Inhibition at 10 nM Ig (inhibition of interferon gamma release in human blood) values
Write the value in % as a bare number.

Completed entries (count: 2):
{"columns": ["BINDER", "ENDPOINT VALUE"],
 "data": [
  ["A212 (antibody, human IgG1, V domains shown) VH: QVQLVQSGAEVKKPGASVKVSCKASGFDIQDTYMHWVRQRPGQGLEWIGRIDPASGHTKYDPKFQVRATITTDTSTSTAYLELSSLRSEDTAVYYCARSGGLPDVWGQGTTVTVSS VL: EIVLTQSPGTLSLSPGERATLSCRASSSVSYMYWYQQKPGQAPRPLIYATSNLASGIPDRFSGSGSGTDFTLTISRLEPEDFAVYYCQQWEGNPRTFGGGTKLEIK", 71.2],
  ["A219 (antibody, human IgG1, V domains shown) VH: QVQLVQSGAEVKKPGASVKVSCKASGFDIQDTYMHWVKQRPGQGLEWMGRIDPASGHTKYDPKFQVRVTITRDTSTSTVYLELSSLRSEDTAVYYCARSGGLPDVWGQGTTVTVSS VL: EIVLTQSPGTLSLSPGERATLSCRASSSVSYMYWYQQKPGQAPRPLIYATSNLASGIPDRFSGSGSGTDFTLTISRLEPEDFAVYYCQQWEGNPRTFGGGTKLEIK", 75.2]
]}

Continue with the next binder.
// field: % Inhibition at 10 nM Ig (inhibition of interferon gamma release in human blood); key: A220 (antibody, human IgG1, V domains shown) VH: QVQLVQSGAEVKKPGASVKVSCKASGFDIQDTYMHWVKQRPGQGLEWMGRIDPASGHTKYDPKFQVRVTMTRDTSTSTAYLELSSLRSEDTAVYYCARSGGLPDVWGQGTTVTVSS VL: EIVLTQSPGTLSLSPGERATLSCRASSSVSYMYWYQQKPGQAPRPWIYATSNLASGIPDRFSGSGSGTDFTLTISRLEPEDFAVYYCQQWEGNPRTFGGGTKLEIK ; value = 63.2
